// provenance: patent US20170273985A1

# system.under.test: UniProtKB P54750
# assay.name: In vitro HTRF PDE1 inhibition assay (PDE1A3)
# Type: biochemical
# condition.set: Table 23
Exercise: for every item that follows, state its recorded IC50.

Here is how some compounds turned out for IC50.
[[record]]
compound = "CC(C)c1ncc2c(=O)n3c(nn12)N(Cc1ccc(C#N)cc1)CCC3 [Example 30]"
experimental_value = "< 1000 nM"

[[record]]
compound = "CC(C)n1ncc2c(=O)n3c(nc21)N(C)C(c1ccc(Cl)cc1)CC3 (centres unmarked) [Example 81]"
experimental_value = "< 1000 nM"

[[record]]
compound = "CC(C)(C)CCN1CCn2c1nn1c(C3CCOCC3)ncc1c2=O [Example 55]"
experimental_value = "< 1000 nM"


Give IC50 for each of the items listed below.
1. CC(C)c1ncc2c(=O)n3c(nn12)N(CCCc1ccccn1)CCC3 [Example 120]
2. O=c1c2cnc(C3CCCC3)n2nc2n1CCCC2 [Example 137]

1. < 1000 nM
2. 1000 to 10000 nM
